Listing: EC50 of selected binders
# Measured on: T1, human NMI (N-myc Interacting protein), recombinant protein (human, UniProt Q13287 1-307, limits assumed)
# T1 construct: Gene ID: 9111; also called hNMI; antigen
# T1 sequence (looked up): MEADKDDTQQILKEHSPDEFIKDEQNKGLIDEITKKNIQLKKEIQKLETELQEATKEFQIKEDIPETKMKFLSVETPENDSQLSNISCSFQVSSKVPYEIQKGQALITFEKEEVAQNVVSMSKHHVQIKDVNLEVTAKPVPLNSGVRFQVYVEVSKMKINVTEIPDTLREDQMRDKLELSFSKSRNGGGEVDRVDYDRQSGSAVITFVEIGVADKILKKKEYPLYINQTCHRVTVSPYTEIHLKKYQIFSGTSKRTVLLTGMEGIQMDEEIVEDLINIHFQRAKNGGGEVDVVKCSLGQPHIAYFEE
# Test name: ELISA, binding to hNMI
Measured attribute: EC50 (µg/mL)

| Binder | Unit annotation | Readout value |
| --- | --- | --- |
| 98G10-L-3 (antibody, V domains shown, also called 98G10 Y93Q (VL)) VH: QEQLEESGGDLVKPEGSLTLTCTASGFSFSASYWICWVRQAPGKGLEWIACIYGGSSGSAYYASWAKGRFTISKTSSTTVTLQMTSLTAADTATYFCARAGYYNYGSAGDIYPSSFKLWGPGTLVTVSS VL: DIVMTQTPASVEAAVGGTVTINCQASQSISTALAWYQQKPGQPPKLLIYTASKVASGVPSRFSGSGSGTQFTLTISDLECADAATYYCQNYYQSSSSITFGGGTEVVVK | µg/mL | 0.066 |
| 98G10-H-8 (antibody, V domains shown, also called 98G10 W34D, Y112R (VH)) VH: QEQLEESGGDLVKPEGSLTLTCTASGFSFSASYDICWVRQAPGKGLEWIACIYGGSSGSAYYASWAKGRFTISKTSSTTVTLQMTSLTAADTATYFCARAGYYNYGSAGDIRPSSFKLWGPGTLVTVSS VL: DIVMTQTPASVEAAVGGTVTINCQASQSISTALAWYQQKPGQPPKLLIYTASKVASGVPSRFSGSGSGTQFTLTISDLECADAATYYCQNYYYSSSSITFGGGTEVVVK | µg/mL | 1.59 |
| 98G10-H-11 (antibody, V domains shown, also called 98G10 W34H, Y112R (VH)) VH: QEQLEESGGDLVKPEGSLTLTCTASGFSFSASYHICWVRQAPGKGLEWIACIYGGSSGSAYYASWAKGRFTISKTSSTTVTLQMTSLTAADTATYFCARAGYYNYGSAGDIRPSSFKLWGPGTLVTVSS VL: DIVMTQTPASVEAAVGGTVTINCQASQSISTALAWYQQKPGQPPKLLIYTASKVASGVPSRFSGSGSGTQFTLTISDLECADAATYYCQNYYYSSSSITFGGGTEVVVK | µg/mL | 0.026 |
| 98G10-H-13 (antibody, V domains shown, also called 98G10 W34K, Y112S (VH)) VH: QEQLEESGGDLVKPEGSLTLTCTASGFSFSASYKICWVRQAPGKGLEWIACIYGGSSGSAYYASWAKGRFTISKTSSTTVTLQMTSLTAADTATYFCARAGYYNYGSAGDISPSSFKLWGPGTLVTVSS VL: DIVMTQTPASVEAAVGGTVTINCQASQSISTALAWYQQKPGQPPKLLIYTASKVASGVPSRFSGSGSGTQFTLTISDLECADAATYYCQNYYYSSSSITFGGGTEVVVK | µg/mL | 1.68 |
| 98G10-H-5 (antibody, V domains shown, also called 98G10 Y112E (VH)) VH: QEQLEESGGDLVKPEGSLTLTCTASGFSFSASYWICWVRQAPGKGLEWIACIYGGSSGSAYYASWAKGRFTISKTSSTTVTLQMTSLTAADTATYFCARAGYYNYGSAGDIEPSSFKLWGPGTLVTVSS VL: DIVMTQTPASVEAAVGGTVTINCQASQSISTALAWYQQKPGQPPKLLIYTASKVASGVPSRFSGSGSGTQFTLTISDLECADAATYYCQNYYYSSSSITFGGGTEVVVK | µg/mL | 1.85 |
